- Tested on: Escherichia coli
- assay: Antibacterial activity against Escherichia coli at 100 ug/ml after 24 hrs by agar well diffusion method
- Format: functional
- cond: read-out: DIZ
Parameter: zone of inhibition at 100 µg/mL. Scope: all listed entries.

| structure as smiles | zone of inhibition at 100 µg/mL |
| --- | --- |
| Cc1cccc2nc(N/N=C/c3ccc(Br)cc3Br)sc12 | 16 mm |
| Cc1cccc2nc(N/N=C/c3ccncc3)sc12 | 19 mm |
| Cc1ccc(/C=N/Nc2nc3cccc(C)c3s2)cc1 | 22 mm |
| Cc1cccc2nc(N/N=C/c3ccco3)sc12 | 17 mm |
| COc1cc(/C=N/Nc2nc3cccc(C)c3s2)cc(OC)c1OC | 36 mm |
| Cc1cccc2nc(N/N=C/c3ccc(F)cc3)sc12 | 17 mm |
| COc1ccc(/C=N/Nc2nc3cccc(C)c3s2)c(OC)c1 | 23 mm |
| Cc1cccc2nc(N/N=C/c3ccc(O)cc3)sc12 | 25 mm |
| Cc1cccc2nc(N/N=C/c3ccc([N+](=O)[O-])cc3[N+](=O)[O-])sc12 | 18 mm |
| Cc1cccc2nc(N/N=C/c3cc4ccccc4[nH]3)sc12 | 33 mm |

====

- Test system: Fusarium verticillioides
- assay: Antifungal activity against Fusarium moniliforme at 75 ug/ml after 48 hrs by agar well diffusion method
- Type: functional
- cond: read-out: DIZ

| compound | unit info | zone of inhibition at 75 µg/mL |
| --- | --- | --- |
| CC(=O)N1CCN(c2ccc(OCC3COC(Cn4ccnc4)(c4ccc(Cl)cc4Cl)O3)cc2)CC1 (centres undefined) | mm | 31 |
| COc1cc(/C=N/Nc2nc3cccc(C)c3s2)cc(OC)c1OC | mm | 33 |
| Cc1cccc2nc(N/N=C/c3ccc(Cl)cc3)sc12 | mm | 20 |
| COc1ccc(/C=N/Nc2nc3cccc(C)c3s2)cc1Br | mm | 13 |
| Cc1cccc2nc(N/N=C/c3ccc(O)cc3)sc12 | mm | 13 |
| Cc1cccc2nc(N/N=C/c3ccc([N+](=O)[O-])cc3)sc12 | mm | 4 |
| Cc1cccc2nc(N/N=C/c3cc4ccccc4[nH]3)sc12 | mm | 9 |
| Cc1cccc2nc(N/N=C/c3cccs3)sc12 | mm | 12 |
| Cc1cccc2nc(N/N=C/c3ccc[nH]3)sc12 | mm | 14 |
| Cc1cccc2nc(N/N=C/c3ccc(Oc4ccccc4)cc3)sc12 | mm | 8 |
| Cc1cccc2nc(N/N=C/c3ccc([N+](=O)[O-])cc3[N+](=O)[O-])sc12 | mm | 30 |
| COc1cc(/C=N/Nc2nc3cccc(C)c3s2)ccc1OCc1ccccc1 | mm | 15 |
| Cc1cccc2nc(N/N=C/c3ccc(F)cc3F)sc12 | mm | 28 |
| Cc1cccc2nc(N/N=C/c3ccco3)sc12 | mm | 18 |

====

Parameter: zone of inhibition at 25 µg/mL. Scope: all listed entries.
- Test system: Fusarium oxysporum
- assay: Antifungal activity against Fusarium oxysporum at 25 ug/ml after 48 hrs by agar well diffusion method
- Type: functional
- cond: read-out: DIZ
measurement label: zone of inhibition at 25 µg/mL (mm)

| molecule | target or system | unit info | numeric value |
| --- | --- | --- | --- |
| Cc1cccc2nc(N/N=C/c3ccc(Br)cc3)sc12 | Fusarium oxysporum | mm | 13 |
| COc1cc(/C=N/Nc2nc3cccc(C)c3s2)cc(OC)c1OC | Fusarium oxysporum | mm | 7 |
| COc1ccc(/C=N/Nc2nc3cccc(C)c3s2)c(OC)c1 | Fusarium oxysporum | mm | 7 |
| Cc1ccc(/C=N/Nc2nc3cccc(C)c3s2)cc1 | Fusarium oxysporum | mm | 7 |
| CC(=O)N1CCN(c2ccc(OCC3COC(Cn4ccnc4)(c4ccc(Cl)cc4Cl)O3)cc2)CC1 (stereo not given) | Fusarium oxysporum | mm | 23 |
| Cc1cccc2nc(N/N=C/c3cc4ccccc4[nH]3)sc12 | Fusarium oxysporum | mm | 17 |
| Cc1cccc2nc(N/N=C/c3ccc(F)cc3)sc12 | Fusarium oxysporum | mm | 10 |
| Cc1cccc2nc(N/N=C/c3ccc(Br)cc3Br)sc12 | Fusarium oxysporum | mm | 16 |
| Cc1cccc2nc(N/N=C/c3ccccc3)sc12 | Fusarium oxysporum | mm | 4 |
| Cc1cccc2nc(N/N=C/c3cc(O)c(O)c(O)c3)sc12 | Fusarium oxysporum | mm | 15 |

====

- Test system: Aspergillus niger
- assay: Antifungal activity against Aspergillus niger at 100 ug/ml after 48 hrs by agar well diffusion method
- Format: functional
- cond: read-out: DIZ

| structure as smiles | target or system | unit info | zone of inhibition at 100 µg/mL |
| --- | --- | --- | --- |
| COc1cc(/C=N/Nc2nc3cccc(C)c3s2)cc(OC)c1OC | Aspergillus niger | mm | 21 |
| Cc1cccc2nc(N/N=C/c3ccc(Br)cc3Br)sc12 | Aspergillus niger | mm | 40 |
| COc1ccc(/C=N/Nc2nc3cccc(C)c3s2)c(OC)c1 | Aspergillus niger | mm | 4 |
| COc1ccc(/C=N/Nc2nc3cccc(C)c3s2)cc1Br | Aspergillus niger | mm | 18 |
| Cc1cccc2nc(N/N=C/c3ccc(Cl)cc3)sc12 | Aspergillus niger | mm | 19 |
| COc1cc(/C=N/Nc2nc3cccc(C)c3s2)cc(Br)c1O | Aspergillus niger | mm | 18 |
| Cc1cccc2nc(N/N=C/c3cc4ccccc4[nH]3)sc12 | Aspergillus niger | mm | 30 |
| Cc1cccc2nc(N/N=C/c3ccc(F)cc3F)sc12 | Aspergillus niger | mm | 30 |
| Cc1cccc2nc(N/N=C/c3ccc([N+](=O)[O-])cc3)sc12 | Aspergillus niger | mm | 21 |

====

Parameter: zone of inhibition at 25 µg/mL. Scope: all listed entries.
- Test system: Aspergillus niger
- assay: Antifungal activity against Aspergillus niger at 25 ug/ml after 48 hrs by agar well diffusion method
- Format: functional
- cond: read-out: DIZ
measurement label: zone of inhibition at 25 µg/mL (mm)

| molecule | measurement label | numeric value |
| --- | --- | --- |
| Cc1cccc2nc(N/N=C/c3ccc(F)cc3F)sc12 | zone of inhibition at 25 µg/mL | 17 |
| CC(=O)N1CCN(c2ccc(OCC3COC(Cn4ccnc4)(c4ccc(Cl)cc4Cl)O3)cc2)CC1 (stereo not drawn) | zone of inhibition at 25 µg/mL | 24 |
| COc1cc(/C=N/Nc2nc3cccc(C)c3s2)cc(Br)c1O | zone of inhibition at 25 µg/mL | 7 |

====

Parameter: zone of inhibition at 50 µg/mL. Scope: all listed entries.
- System: Fusarium oxysporum
- assay: Antifungal activity against Fusarium oxysporum at 50 ug/ml after 48 hrs by agar well diffusion method
- Format: functional
- cond: read-out: DIZ

| compound | zone of inhibition at 50 µg/mL (mm) |
| --- | --- |
| Cc1cccc2nc(N/N=C/c3ccc([N+](=O)[O-])cc3)sc12 | 10 |
| Cc1cccc2nc(N/N=C/c3ccc(F)cc3)sc12 | 13 |
| COc1cc(/C=N/Nc2nc3cccc(C)c3s2)ccc1OCc1ccccc1 | 5 |
| CC(=O)N1CCN(c2ccc(OCC3COC(Cn4ccnc4)(c4ccc(Cl)cc4Cl)O3)cc2)CC1 (centres undefined) [KETOCONAZOLE] | 22 |
